# PROTOCOL DESCRIPTION: qHTS profiling of the MIPE4 collection as inhibitors of Plasmodium falciparum (DD2) proliferation (AID 743345)
# MEASUREMENT PARAMETERS: P. falciparum Dd2 in erythrocytes, SYBR Green DNA, 72 h; at 28.5 µM (top of the series)
Each item that follows carries a reported parasite growth remaining, % of DMSO control (lower = more inhibition).
QUANTITY KIND: parasite growth remaining, % of DMSO control (lower = more inhibition) (%)

CN(C)CCC(c1ccc(Cl)cc1)c1ccccn1 (centres undefined) : 70.9
O=C(Nc1cccc(C(=O)Nc2ccc(S(=O)(=O)O)c3cc(S(=O)(=O)O)cc(S(=O)(=O)O)c23)c1)Nc1cccc(C(=O)Nc2ccc(S(=O)(=O)O)c3cc(S(=O)(=O)O)cc(S(=O)(=O)O)c23)c1 : 91.3
C=C[C@@H]1CN2CC[C@@H]1C[C@H]2[C@H](O)c1ccnc2ccc(OC)cc12 : 9.34
C=CC(C)=C[C@@]1(C)SC(=O)C(C)=C1O : 108
